The measured values listed here are drawn from PubChem BioAssay AID1159580.

experiment: chemical genetic growth profiling, strain panel (AID 1159580);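 note: tested at 20 µM; growth read once vehicle control cultures reached saturation at 30 °C; 1 = growth at the plate median or of vehicle wells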; conditions: S. cerevisiae deletion strains, growth OD, locus YJL128C, strain PBS2, stronger effect = lower value
In all, about 5,500 compounds went through this assay and about 2,000 (36%) were called active. Roughly 18% stayed inconclusive and do not appear here. The list shows a part of the results.
Parameter normalized growth: see the listing below.
Field format: numeric only.

// returns reported normalized growth for input `CC(C)c1ccc(N2C=Nc3ccc(C(C)C)cc3C2)cc1` 0.982

// returns reported normalized growth for input `O=C(NCCSCc1cccc(C(F)(F)F)c1)Nc1cccc(C(F)(F)F)c1` 0.954

// returns reported normalized growth for input `CC(=O)c1sc(SCCS(=O)(=O)c2ccc(C)cc2)c2c1CC(C)(C)CC2=O` 0.982

// returns reported normalized growth for input `CC(=O)Nc1ccc(/C=C/[N+](=O)[O-])cc1` 0.969

// returns reported normalized growth for input `O=[N+]([O-])/C=C/c1ccsc1` 0.0942

// returns reported normalized growth for input `S=C(N/N=C\c1ccc(Cl)cc1)N/N=C\c1ccc(Cl)cc1` 0.991

// returns reported normalized growth for input `C=CCOc1ccc(/C=C/[N+](=O)[O-])cc1` 0.154

---

assay: chemical genetic growth profiling, strain panel (AID 1159580); conditions: S. cerevisiae deletion strains, growth OD, locus YNL067W, strain RPL9B
Out of some 5,500 compounds screened, about 2,000 (36%) were called active. Another 18% or so got no clear call; they are omitted. No stated cut-off is given here; in the data, active means normalized growth mostly below about 0.91 (no sharp cut-off); inconclusive means no clear call, values can overlap the other calls; inactive means mostly above about 0.92. Some of the results follow.
Hi! Could you answer with just one of these? active, inactive

- Compound: "CCOP(=S)(OCC)SCn1c(=O)oc2cc(Cl)ccc21"
  Class: "inactive"
- Compound: "CC(C)(C)NC[C@@H](O)COc1nsnc1N1CCOCC1"
  Class: "inactive"
- Compound: "CCN(CC)CCNC(=O)c1cc(S(C)(=O)=O)ccc1OC"
  Class: "inactive"
- Compound: "O=C1C=CC2=C3c4cc(O)c(O)cc4C[C@@]3(O)COC2=C1"
  Class: "inactive"
- Compound: "CCC(Cc1c(I)cc(I)c(N)c1I)C(=O)O (configuration not stated)"
  Class: "inactive"

Record lookup: outcome of this test for `O=C(CCCCCCCCCCCCC1CCCC1)Nc1ccc(S(=O)(=O)c2ccc(NC(=O)CCCCCCCCCCCCC3CCCC3)cc2)cc1` ? inactive

Record lookup: outcome of this test for `O=[N+]([O-])c1cc([As](=O)(O)O)ccc1O` ? inactive

Record lookup: outcome of this test for `CC(=O)NCCCCCC(=O)O` ? inactive

Record lookup: outcome of this test for `OC[C@@H](O)[C@@H](O[C@@H]1O[C@H](CO)[C@@H](O)[C@H](O)[C@H]1O)[C@H](O)[C@@H](O)CO` ? inactive

Record lookup: outcome of this test for `C=C(C)[C@H]1CC=C(C(=O)O)CC1` ? inactive

Record lookup: outcome of this test for `C1CNCCN1` ? inactive

Record lookup: outcome of this test for `O=[N+]([O-])c1ccc(O)c([N+](=O)[O-])c1` ? active

---

experiment: chemical genetic growth profiling, strain panel (AID 1159580); conditions: S. cerevisiae deletion strains, growth OD, locus YHR200W, strain rpn10
The whole screen tested about 5,500 compounds, of which about 2,000 (36%) were called active. Not shown: some 18% with an inconclusive outcome. No stated cut-off is given here; in the data, active means normalized growth mostly below about 0.91 (no sharp cut-off); inconclusive means no clear call, values can overlap the other calls; inactive means mostly above about 0.92. This is one part of the list.
Hi! Could you answer with just one of these? 1.0 (active), 0.0 (inactive)

Past entries and their recorded results:
- Compound: "NC(=NCCC[C@H](N)C(=O)O)NC(CCC(=O)O)C(=O)O (some centres undefined)"
  Class: 0.0
- Compound: "Nc1ncnc2c1ncn2C1C[C@H](O)[C@@H](CO)O1 (some centres undefined)"
  Class: 0.0
- Compound: "O=[N+]([O-])c1ccc(O)c([N+](=O)[O-])c1"
  Class: 1.0
- Compound: "OC[C@@H]1CCCN2CCCC[C@H]12"
  Class: 0.0
- Compound: "C1CCN2CC3CC(CN4CCCCC34)C2C1 (centres undefined)"
  Class: 0.0

Record lookup: outcome of this test for `Nc1ncnc2c1ncn2[C@@H]1O[C@H](CO)[C@@H](O)[C@H]1O` ? 0.0

Record lookup: outcome of this test for O=C1CCCC2C3CC(CN12)[C@@H]1CCCCN1C3 (some centres undefined) ? 0.0

Record lookup: outcome of this test for `CCCc1occc(=O)c1/C=C/O` ? 0.0

---

test: chemical genetic growth profiling, strain panel (AID 1159580); settings: S. cerevisiae deletion strains, growth OD, locus YDR101C, strain arx1, stronger effect = lower value
About 2,000 (36%) of roughly 5,500 compounds were called active. Roughly 18% stayed inconclusive and do not appear here. This is one part of the list.
Parameter normalized growth: see the listing below.
Field format: numeric only.

Example entries and their recorded answers appear below.
- Molecule: "NCC(O)c1ccc(O)cc1 (stereo not drawn)"
  normalized growth: 0.987
- Molecule: "CNC[C@@H](O)c1ccc(O)c(O)c1"
  normalized growth: 0.982

Next, consider the following molecule.
// returns reported normalized growth for input `CCCCC1(COC(=O)CCC(=O)O)C(=O)N(c2ccccc2)N(c2ccccc2)C1=O` 1.01

---

Parameter normalized growth: see the listing below.
test: chemical genetic growth profiling, strain panel (AID 1159580);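 note: tested at 20 µM; growth read once vehicle control cultures reached saturation at 30 °C; 1 = growth at the plate median or of vehicle wells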; conditions: S. cerevisiae deletion strains, growth OD, locus YCL061C, strain MRC1 (second series), stronger effect = lower value
The whole screen tested about 5,500 compounds, of which about 2,000 (36%) were called active. Not shown: some 18% with an inconclusive outcome. The list shows a part of the results.
Field format: numeric only.

Example entries and their recorded answers appear below.
- Molecule: "CN(CCOc1ccc(C[C@H](Nc2ccccc2C(=O)c2ccccc2)C(=O)O)cc1)c1ccccn1"
  normalized growth: 0.999
- Molecule: "O=S(=O)(O)C1CCNCC1"
  normalized growth: 1
- Molecule: "CC/C(=C(\\c1ccccc1)c1ccc(OCCN(C)C)cc1)c1ccccc1"
  normalized growth: 0.311
- Molecule: "OC[C@H]1O[C@@H](n2cnc3c(NCCc4ccccc4)ncnc32)C(O)[C@H]1O (stereo partly specified)"
  normalized growth: 0.999
- Molecule: "CC(O)C(O)[C@H]1CNc2nc(N)[nH]c(=O)c2N1 (stereo partly specified)"
  normalized growth: 1.01

Next, consider the following molecule.
// returns reported normalized growth for input `Cc1cccc(C)c1NC(=O)C[N+](C)(C)C` 1

---

assay: chemical genetic growth profiling, strain panel (AID 1159580);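 note: tested at 20 µM; growth read once vehicle control cultures reached saturation at 30 °C; 1 = growth at the plate median or of vehicle wells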; conditions: S. cerevisiae deletion strains, growth OD, locus YCL029C, strain bik1, stronger effect = lower value
Hit rate of the full screen: of about 5,500 compounds, about 2,000 (36%) were called active. Roughly 18% stayed inconclusive and do not appear here. Some of the results follow.
Measured endpoint: normalized growth
Field format: numeric only.

Example entries and their recorded answers appear below.
- Compound: "CC(C)N(C(=O)SCC(Cl)=C(Cl)Cl)C(C)C"
  Measured endpoint: "normalized growth"
  Value measured: 1.01
- Compound: "CC1(C)C(=O)C=C[C@@]2(C)C1=C(O)C(=O)[C@]1(C)C2CC[C@@]2(C)[C@H](c3ccoc3)C[C@H]3O[C@]321 (some centres undefined)"
  Measured endpoint: "normalized growth"
  Value measured: 0.879
- Compound: "CC(=O)OC1CC(OC(C)=O)C2(C)C(CC(OC(C)=O)C3(C)C2CCC2(C)C(c4ccoc4)CC4OC423)C1(C)C (centres undefined)"
  Measured endpoint: "normalized growth"
  Value measured: 1
- Compound: "CC1(C)C(=O)C=CC2(C)C3CCC4(C)C(c5ccoc5)CC5OC54C3C(O)CC12 (centres undefined)"
  Measured endpoint: "normalized growth"
  Value measured: 1.01
- Compound: "CC(=O)O[C@@H]1C[C@@]2(C)[C@H](c3ccoc3)C[C@H]3O[C@]32[C@]2(C)C(=O)C(O)=C3C(C)(C)C(=O)C=C[C@]3(C)C12 (some centres undefined)"
  Measured endpoint: "normalized growth"
  Value measured: 0.907

// returns reported normalized growth for input `C1CNCCN1` 0.997

// returns reported normalized growth for input CC(=O)O[C@@H]1CC2C(C)(C)C=CC(=O)[C@]2(C)C2CC[C@@]3(C)[C@H](c4ccoc4)OC(=O)C4OC43[C@@]21C (some centres undefined) 1

// returns reported normalized growth for input `C/C=C/c1ccc2c(c1)OCO2` 1.01

// returns reported normalized growth for input COc1ccccc1OCCNCC(O)COc1cccc2[nH]c3ccccc3c12 (centres undefined) 1.02

---

test: chemical genetic growth profiling, strain panel (AID 1159580);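 note: tested at 20 µM; growth read once vehicle control cultures reached saturation at 30 °C; 1 = growth at the plate median or of vehicle wells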; details: S. cerevisiae deletion strains, growth OD, locus YLR371W, strain rom2
Among all 5,500 compounds or so, about 2,000 (36%) were called active. Roughly 18% stayed inconclusive and do not appear here. Cut-off read from the data, not from the text of the source: active = normalized growth mostly below about 0.91 (no sharp cut-off); inconclusive = no clear call, values can overlap the other calls; inactive = mostly above about 0.92. The list shows a part of the results.
Hi! Could you answer with just one of these? active, inactive

Past entries and their recorded results:
- Compound: "COC(C)(C)CCC[C@H](C)C/C=C/C(C)=C/C(=O)OC(C)C"
  Class: "inactive"
- Compound: "O=C(O)CF"
  Class: "inactive"
- Compound: "CC1(C)CC2C1(O)CCC1(C)C=CC(O)C21CO (stereo not given)"
  Class: "inactive"
- Compound: "CC(=O)Nc1ccc(S(=O)(=O)Nc2ccc([N+](=O)[O-])cc2)cc1"
  Class: "inactive"
- Compound: "CC(=O)O[C@@H]1CC2C(C)(C)C(=O)CC[C@]2(C)C2CC[C@]3(C)C(=CC(=O)O[C@H]3c3ccoc3)[C@@]21C (stereo not given in full)"
  Class: "inactive"

Record lookup: outcome of this test for `COc1cc2c(c(OC)c1OC)-c1ccc(O)c(=O)cc1[C@@H](NC(C)=O)CC2` ? inactive

Record lookup: outcome of this test for `NCCCC[C@H](N[C@@H](CCc1ccccc1)C(=O)O)C(=O)N1CCC[C@H]1C(=O)O` ? inactive

Record lookup: outcome of this test for `Nc1ncnc2c1ncn2[C@@H]1O[C@H](CO)[C@@H](O)[C@H]1O` ? inactive

Record lookup: outcome of this test for `Cc1occc(=O)c1/C=C/O` ? inactive
